# Species: Rattus norvegicus
# METHOD_SUMMARY: Open TG-GATES - Regimen: Single
# Format: toxicity, organism-based, Sprague-Dawley
# Design: regimen Single, gender Male, age 6 weeks
# EXPERIMENTAL_CONDITIONS: in vivo, po, 0 mg/kg, 9 h, route gavage, dose level Control
MEASURED_PARAMETER: TERMINAL_BW (g)
Response body: numeric value in g, unit text excluded.

INSERT INTO results (compound, assay_result) VALUES
  ('CNC(=C[N+](=O)[O-])NCCSCc1ccc(CN(C)C)o1 [RANITIDINE]', 211.2);

Attention now shifts to the item below.
Qu. Which TERMINAL_BW reading was recorded for the compound CN(C)CCC(c1ccc(Cl)cc1)c1ccccn1 (stereo not drawn) [CHLORPHENIRAMINE] ?
Ans. 193.9
